target: α-7 nicotinic ACh receptor ion channels expressed in mammalian HEK 293 cells (Rattus norvegicus); construct: expressed in transfected cells; assay: Ca2+-sensitive, fluorescence-based assay for α-7 nicotinic acetylcholine receptor channel function (FLIPR); type: cell-based; settings: FLIPR α7-HI (EC50, nM), agonist potency, Ca2+ influx
Sequence (Q05941 23-502): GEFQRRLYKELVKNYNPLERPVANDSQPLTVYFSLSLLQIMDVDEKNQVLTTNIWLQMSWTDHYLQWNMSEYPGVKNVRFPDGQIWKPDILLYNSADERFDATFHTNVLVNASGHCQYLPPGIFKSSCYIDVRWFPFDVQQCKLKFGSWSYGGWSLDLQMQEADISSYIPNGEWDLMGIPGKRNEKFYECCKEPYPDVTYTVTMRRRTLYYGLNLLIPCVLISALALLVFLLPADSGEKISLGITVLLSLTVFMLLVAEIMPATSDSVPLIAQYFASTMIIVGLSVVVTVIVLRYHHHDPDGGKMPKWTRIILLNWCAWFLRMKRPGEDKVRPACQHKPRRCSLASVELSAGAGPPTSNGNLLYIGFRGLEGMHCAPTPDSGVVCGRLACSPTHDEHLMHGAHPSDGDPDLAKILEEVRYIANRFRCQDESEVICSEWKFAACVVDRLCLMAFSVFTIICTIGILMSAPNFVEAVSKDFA
EC50 values for the compounds below.
Answer in nM, number only, no unit symbol.

c1cnc2sc(NC3=NC[C@@]4(C[N@@]5CCC[C@@H]4C5)O3)nc2c1 (relative stereo) [Example 5] :: 132

Could you tell me which EC50 is on file for c1cnc2sc(NC3=NCC4(CN5CCCC4C5)O3)nc2c1 (single isomer, unassigned) [Example 5a] ?
105

Subsequent entry: c1ccc2cc(NC3=NC[C@@]4(C[N@]5CCC[C@H]4C5)O3)ncc2c1 (single isomer, unassigned) [Example 4]
820

Lookup c1cnc2sc(NC3=NC[C@@]4(C[N@]5CCC[C@H]4C5)O3)nc2c1 (relative stereo) [Example 3]
1080

Please do the same for c1cnc2sc(NC3=NCC4(CN5CCCC4C5)O3)nc2c1 (single isomer, unassigned) [Example 5b] as well.
88

These entries and their values trace back to patent US8507516B2.
